tested on: MS2 coat protein; assay: apparent KD of MS2 coat protein; designed switch direction (-1 OFF switch, 1 ON switch): -1; higher = weaker reporter binding; conditions: input ligand: none
Catalogue of sequences with associated apparent KD of MS2 coat protein
The reply should be a number in nM, with the unit left off.

{"inputSequence": "AGAUCACAUGAGGAUCACCCAUGUCAGGAUAUCAUCAUUGAAGCUUCGGCUUCAAUGAUGAGAAGGGACAUAAU [E1/2-B1] (Eterna round: R97, puzzle: Exclusion 1)", "valueUnit": "nM", "apparent KD of MS2 coat protein": 598}
{"inputSequence": "CAGUUUUGAGUGAGGAUAUGUGAUCCAAAGGGUCAACAGAAGGCACAUGAGGAUCACCCAUGUAAUCCAAUUGG [Eternabot (L2) Solution 37] (Eterna round: R97, puzzle: Brourd's mod of Exclusion 4)", "valueUnit": "nM", "apparent KD of MS2 coat protein": 3760}
{"inputSequence": "AAGGGUACUUUCAGAACGACAUGAGGAUCACCCAUGUAGACUGAGGAUAUCUACUACUAAGGACGGGAGAAGGCAGUGUAAUGU [Ex NG3 #73] (Eterna round: R96, puzzle: Exclusion NG 3)", "valueUnit": "nM", "apparent KD of MS2 coat protein": 15.2}
{"inputSequence": "GGCGUGUAUUAGGAUAUUGGAGGGAGGGAGGGCUAAGAAGGAGUAACAUGAGGAUCACCCAUGUAGAGGAAGGG [RHig 2] (Eterna round: R97, puzzle: Exclusion 6)", "valueUnit": "nM", "apparent KD of MS2 coat protein": 95.3}
{"inputSequence": "GUCAGCUCGUCAGGAUAUAUAUACAUGAGGAUCACCCAUGUAAGAUCAGGCUUCGGCCAAUGUAUAUAGAAGGGACGAGCUGAC [ENG2/11-B1] (Eterna round: R96, puzzle: Exclusion NG 2)", "valueUnit": "nM", "apparent KD of MS2 coat protein": 716}

q: Given the entry AUAAUACAUGUAGGAUAUCUGCACGUGUAGUGCAGAGAAGGACAUGAGGAUCACCCAUGUAAUUAAGAUCAAUUAUUAAAUUAU [ENG1/3-D3] (Eterna round: R96, puzzle: Exclusion NG 1) , report its measured apparent KD of MS2 coat protein.
a: 75.6

q: Given the sequence UAAGAUUACCGAGGAUAUGCUGGUUUCUCUCAAGCAGAAGGCGGACUCAACAUGAGGAUCACCCAUGUAAGACGGGUACUAGAU [Ex NG1 #11] (Eterna round: R96, puzzle: Exclusion NG 1) , what is its reported apparent KD of MS2 coat protein?
a: 574

q: What value of measured apparent KD of MS2 coat protein is listed for AAUUUACAUGAGGAUCACCCAUGUGAGGAUAUAUGUUUUAAUUUUUUUUUUUUUUUUCAUAGAAGGCGCGUGAU [JR_Exc1_Sub047] (Eterna round: R97, puzzle: Exclusion 1) ?
a: 43.5

---

system: K4 kissing-loop RNA reporter; experiment: apparent KD of K4 kissing-loop reporter; higher = weaker reporter binding; conditions: Eterna round: R107; input ligand: arginine 13.2 mM;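 also: bound reporter read as fluorescence of individual clusters on recovered sequencing chips by microscopy, with normalized cluster intensities fitted with a binding model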
sequences and their reported apparent KD of K4 kissing-loop reporter

Guide cases for apparent KD of K4 kissing-loop reporter, answers given:
{"inputSequence": "AGCUGUAGCAGAAGGAGCGACAGUUAUUCUGAUAGUACUCUGAGUGAUGUUCAGAACGACUGUCAGGUAGGUCGCUGUUACAGCU [Arg B Ex t8b]", "valueReported": "167 nM"}
{"inputSequence": "GCCGUAGAUUGAAGGAGCGGUGAAUGCAGGUGAGUCCUUUAGAUGUUUAGUGAUGUUAAACACCAGGUAGGUCGCAAUCUACGGC", "valueReported": "178 nM"}
{"inputSequence": "AAUGUAUACUGAAGGAGCGAGUAGUGGAAACAUAAACUCAAUGCGAGUGAUGUUCGCAGUACUCAGGUAGGUCGCAGUAAUGGUA [Exclusion Arginine B Gf 8]", "valueReported": "311 nM"}
{"inputSequence": "GCGCGUCAUGUCAGCGGUGACACUGUCGAUACCAGUGCCGCAAGGCGCCCUUGGCAGCGACGUGCUGGAGUGAUGUUCCAGCGUU [#2 Exclusion - Theophylline A Attempt #29 (HarryS)]", "valueReported": "122 nM"}
{"inputSequence": "AAACGUUGGUGCGAUACCAGCUGAUCGGAAACGAUCUUGCUGGAGUGAUGUUCCAGGAAAAGCCCUUGGCAGCGCACCGACGAAA [MAT - Same State Theophlline B - Mod of Eli - D26]", "valueReported": "659 nM"}

q: I would be grateful if you could share the reported apparent KD of K4 kissing-loop reporter for AGACCUCAGUGAUGUUGAGGUAACACUGAUACCAGCGACUUAAUUCGCCCUUGGCAGCAGUCCACCGAGGUAUCUGAUUAGGUCA [#24 K4 Theophylline A Exclusion] .
a: 173 nM

---

system: MS2 coat protein; test: apparent KD of MS2 coat protein; designed switch direction (-1 OFF switch, 1 ON switch): 1; higher = weaker reporter binding; conditions: Eterna round: R95; input ligand: microRNA oligo, concentration not stated
Rule: apparent KD of MS2 coat protein of 40 nM or more gives MET; anything lower gives NOT MET.

{"inputSequence": "AAAGUACAUGAGGAUCACCCAUGUCCAAAGAAGUAAGGAUAUACGGAAAGAAAAGAAAAUGUAGAAGGUACAAGAA [Same State 1 #3] (puzzle: Same State 1)", "labelClass": "MET"}
{"inputSequence": "AGCUAUCGAAAACGAUAGCAAAAGUAUGUACAUGAGGAUCACCCAUGUCAUGUACAAGCUUUUUGCUCGUCUUAAAA [Zipper 23 - 10] (puzzle: Sensor for hsa-mir-208a)", "labelClass": "NOT MET"}
{"inputSequence": "AAGUAACAUGAGGAUCACCCAUGUGAGGUGAGCGUAGGAUAUCGAGGAGGAAGGGUAGGUCGAGAAGGACGAGAAG [JR_SS1_Sub096] (puzzle: Same State 1)", "labelClass": "MET"}
{"inputSequence": "AUAAGGCAAGCUUUUUUCUCGUAGUGUAAACAUGAGGAUCACCCAUGUGCCCACCCUGGACCUUUGGAUCGCAGAAA [Geatxe] (puzzle: Sensor for hsa-mir-208a)", "labelClass": "NOT MET"}
{"inputSequence": "AGAGAGGAAGCUGAGGAUAUCGUAAGGAGGACAUGAGGAUCACCCAUGUGUGUGGAAUUGGAGGACGAGAAGGCAGAGGAGUGGG [JR_SS2_Sub055] (puzzle: Same State 2)", "labelClass": "NOT MET"}
{"inputSequence": "ACGUGGGUAUCACAGGAUAUACUCAUAACUACAUGAGGAUCACCCAUGUAGCGGUAUUCCGGUGCGUAGAAGGGUGAUGGACCAC [Same State 2 - Mod of Artece] (puzzle: Same State 2)", "labelClass": "NOT MET"}
{"inputSequence": "GUUAUACAUGAGGAUCACCCAUGUCAAUGUAGUCGAGGAUAUGGGUAGCUAUGAGGCGUACUAGAAGGCGAGGAGU [JL-ss1-3.16 ViennaUCT mod] (puzzle: Same State 1)", "labelClass": "MET"}
{"inputSequence": "UUGCGCUGUCGAGAGGAUAUGCGGUGUUGGACAUGAGGAUCACCCAUGUUAGCGAUUGCUUUACGGUAGAAGGCUCUUCAGCUGC [salish99_ss2_r3_098] (puzzle: Same State 2)", "labelClass": "MET"}

q: Does the sequence AGCAUACAUGAGGAUCACCCAUGUCAACGUAGUCGAGGAUAUGGGCAGCCGUGAGGCGAACCAGAAGGCGAAUUGA [Mat - Same State 1 - Mod of JL - D3] (puzzle: Same State 1) have recorded apparent KD of MS2 coat protein that is 40 nM or more?
a: NOT MET

q: # bool: apparent KD of MS2 coat protein of GUUAUACAUGAGGAUCACCCAUGUCAAUGUAGUCGAGGAUAUGGGCAGCUAUGAGGCGUACUAGAAGGCGAAGAGG [JL-ss1-3.11 ViennaUCT mod] (puzzle: Same State 1) >= 40 nM
a: MET

---

tested on: MS2 coat protein; experiment: apparent KD of MS2 coat protein, switch ON state; designed switch direction (-1 OFF switch, 1 ON switch): -1; higher = weaker reporter binding; conditions: FMN input: 0 or 200 uM; Eterna round: R93 (includes R88 designs)
assayReadout: apparent KD of MS2 coat protein (nM)
Return type: number; implicit unit nM.

Solved cases (3 shown):
{"inputSequence": "GGUUGGCGAGGAUAUACAUGAGGAUCACCCAUGUGAGAGAAAAAAGUGAGAAAGAACAGUAGAAGGCGCUGACG [salish99-ex3-29]", "valueUnit": "nM", "apparent KD of MS2 coat protein": 23.4}
{"inputSequence": "GACGAGUGAGGAUAUGUAAAAAAAAGAGAAGAGAAGAGAGAACAGAAGGCACAUGAGGAUCACCCAUGUAGGGA [Default title]", "valueUnit": "nM", "apparent KD of MS2 coat protein": 114}
{"inputSequence": "AACAGUACAGGAUAUACAUGAGGAUCACCCAUGUCAGAAUUAAGCAGCGUAACACAAAGUAGAAGGGUAAUGGA [Ruby 18]", "valueUnit": "nM", "apparent KD of MS2 coat protein": 46}

Turning now to a further record.
q: Would you kindly share the measured apparent KD of MS2 coat protein for ACUAAUGAAGGAUAUACAAACAAAAAAAAAACAAAAAAAAAACAUGAGGAUCACCCAUGUAGAAGGUCAAAAAU [JR_Exc002_Sub1201] ?
a: 22
